# Measurement target: NDM-1 (Klebsiella pneumoniae, UniProt C7C422)
# Sequence (C7C422 whole entry, looked up, species assumed): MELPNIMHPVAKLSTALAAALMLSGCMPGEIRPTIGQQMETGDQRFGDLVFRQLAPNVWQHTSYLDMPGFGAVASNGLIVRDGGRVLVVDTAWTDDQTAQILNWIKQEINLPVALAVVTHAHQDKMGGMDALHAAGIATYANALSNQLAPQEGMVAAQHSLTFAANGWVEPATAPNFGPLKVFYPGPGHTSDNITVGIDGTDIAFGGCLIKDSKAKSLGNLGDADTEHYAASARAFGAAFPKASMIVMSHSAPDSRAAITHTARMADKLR
# Procedure summary: biochemical
# Type: biochemical
# Test settings: NDM-1 enzyme, CCF2-FA fluorescence assay; read-out: NDM-1 IC50
Metric: log10 of IC50 (log10 of the value in nM)
Recall that a logarithmic scale is used here: each number is log10 of IC50 in nM.

In the examples that follow, each entry is paired with its recorded log10 of IC50.
Nc1nccc2ccc(-c3cccc(S(N)(=O)=O)c3-c3nnn[nH]3)cc12	0.21
NS(=O)(=O)c1c(Cc2ccccc2)ccc(-c2ccc(C3CCNCC3)cc2)c1-c1nnn[nH]1	0.82
CN(C)CCCCNCc1ccc(-c2cccc(S(N)(=O)=O)c2-c2nnn[nH]2)cc1	1.38
CC(NCc1ccc(-c2cccc(S(N)(=O)=O)c2-c2nnn[nH]2)cc1)C(=O)O (stereo not shown)	1.52
NS(=O)(=O)c1c(-c2ccc(C3CCNCC3)cc2)ccc(-c2ccc(C3CCNCC3)cc2)c1-c1nn[nH]n1	1.72

Input line: Answer with the recorded log10 of IC50 for the molecule listed here: Cl.Cl.NC1CNCCC1(O)c1ccc(-c2cccc(S(N)(=O)=O)c2-c2nn[nH]n2)cc1 (racemic)
Output line: 1.33

Input line: In one line, give reported log10 of IC50 of the entry "NC1(c2ccc(-c3ccc(C(F)(F)F)c(S(N)(=O)=O)c3-c3nn[nH]n3)cc2)CCNCC1" .
Output line: 0.97
